Target: LPA5 (Homo sapiens, UniProt Q9H1C0)
Sequence (Q9H1C0 whole entry, species assumed): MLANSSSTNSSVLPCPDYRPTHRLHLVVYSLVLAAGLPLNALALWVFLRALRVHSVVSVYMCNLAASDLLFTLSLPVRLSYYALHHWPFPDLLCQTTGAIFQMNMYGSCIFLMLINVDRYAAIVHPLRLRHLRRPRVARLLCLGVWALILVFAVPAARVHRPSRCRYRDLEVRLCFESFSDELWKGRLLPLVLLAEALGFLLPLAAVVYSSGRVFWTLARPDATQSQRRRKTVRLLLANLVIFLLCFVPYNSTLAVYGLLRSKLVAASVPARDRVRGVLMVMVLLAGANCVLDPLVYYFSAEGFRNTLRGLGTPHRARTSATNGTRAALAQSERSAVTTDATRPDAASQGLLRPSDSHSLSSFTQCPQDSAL
Assay: LPA5 Ca flux assay
pIC50: −log10 of the molar value.
Property label: pIC50

| Compound | Result |
| --- | --- |
| Cc1noc(-c2ccc(-c3ccc(C4(C(=O)O)CC4)cc3)cc2)c1NC(=O)O[C@H](C)c1ccccc1Cl [Compound E] | < 6.00 |
| Cc1noc(-c2ccc(-c3ccc(CC(=O)O)cc3)cc2)c1NC(=O)O[C@H](C)c1ccccc1Cl [Compound C] | < 6.00 |
| Cc1noc(-c2ccc(-c3ccc(C4(c5nc(=O)o[nH]5)CC4)cc3)cc2)c1NC(=O)O[C@H](C)c1ccccc1 [Compound G] | < 6.00 |
